biological target: T1, Human ACVR2A (human, UniProt P27037 20-135, limits assumed); assay: ELISA; further: test concentration or dose not given here
T1 construct: also called activin receptor, type II A
T1 sequence (P27037 20-135 limits assumed): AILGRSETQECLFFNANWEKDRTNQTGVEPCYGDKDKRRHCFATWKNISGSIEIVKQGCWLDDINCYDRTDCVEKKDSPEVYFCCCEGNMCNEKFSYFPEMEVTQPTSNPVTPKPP
Consider the following binders and their measured optical density readings.
Response body: numeric value in OD, unit text excluded.

- Binder: "370_F01 (antibody, V domains shown, VH/VL only) VH: EVQLLESGGGLVQPGGSLRLSCAASGFTFSSYGMNWVRQAPGKGLEWVSNINYNGGYTSYADSVKGRFTISRDNSKNTLYLQMNSLRAEDTAVYYCARGATWHDTHLDYWGQGTLVTVSS VL: DIQMTQSPSSLSASVGDRVTITCRASQSIVSYLNWYQQKPGKAPKLLIYAATSRASGVPSRFSGSGSGTDFTLTISSLQPEDFATYYCQQSYDSPLTFGGGTKVEIK"
  optical density, OD: 3

Task item: Specify reported optical density for the binder shown: 366_H09 (antibody, V domains shown, VH/VL only) VH: EVQLLESGGGLVQPGGSLRLSCAASGFTFDSYGMNWVRQAPGKGLEWVSNINYNSGYKGYADSVKGRFTISRDNSKNTLYLQMNSLRAEDTAVYYCARSANWHDTALDYWGQGTLVTVSS VL: DIQMTQSPSSLSASVGDRVTITCRASQSIVSYVNWYQQKPGKAPKLVIYATTSRASGVPSRFSGSGSGTDFTLTISSLQPEDFATYYCQQSYSSPLTFGGGTKVEIK
Reply: 2.1
